- experimental.target: T1, HLA-B*44:05 (human)
- T1 construct: also called peptide-receptive MHC class I molecule
- test.method.notes: UV peptide exchange, anti-b2m ELISA
measured.endpoint: peptide exchange yield

Answered cases to consult:
REVDPDDSYVF: 50 to 75%
EKGLISAF: 20 to 50%

Please look up its peptide exchange yield: `EEFLRPRSL`
20 to 50%

The reported numbers originate from patent US20200087363A1.
